The origin of these recorded values is PubChem BioAssay AID1159580.

Entries and their normalized growth
- Assay remarks: chemical genetic growth profiling, strain panel (AID 1159580);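 note: tested at 20 µM; growth read once vehicle control cultures reached saturation at 30 °C; 1 = growth at the plate median or of vehicle wells; lower values mean less growth of the strain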
- Test conditions: S. cerevisiae deletion strains, growth OD, locus YOL006C, strain TOP1, hits give low values
Out of some 5,500 compounds screened, about 2,000 (36%) were called active. Roughly 18% stayed inconclusive and do not appear here. The list shows a part of the results.
Assay endpoint: normalized growth

{"Compound": "N#CCOc1ccc(Cl)cc1Cl", "Measured result": 1.06}
{"Compound": "CC1(C)C(C=C(Cl)Cl)C1C(=O)OC(C#N)c1cccc(Oc2ccccc2)c1 (configuration not stated)", "Measured result": 1.03}
{"Compound": "COc1ccc2cc([C@H](C)C(=O)O)ccc2c1", "Measured result": 1.06}
{"Compound": "COP(=O)(OC)OC=C(Cl)Cl", "Measured result": 1.01}
{"Compound": "Cc1cccc(C)c1OCC(C)N (configuration not stated)", "Measured result": 1.11}
{"Compound": "CO[C@H]1[C@H](O)[C@H](O[C@H]2CC[C@]3(C)C4CC[C@]5(C)C(C6=CC(=O)OC6)CC[C@]5(O)C4CC[C@@H]3C2)O[C@@H](C)[C@@H]1O (some centres not stated)", "Measured result": 1.06}
{"Compound": "CCOC(=O)C(=CNNC(=O)c1ccccc1-n1cccc1)C(=O)OCC", "Measured result": 0.986}
{"Compound": "C[C@H]1CC2C([C@@H](O)C[C@@]3(C)C2CC[C@]3(O)C(=O)CO)[C@@]2(C)C=CC(=O)C=C12 (some centres not stated)", "Measured result": 1.04}
{"Compound": "COc1cc(NS(=O)(=O)c2ccc(N)cc2)nc(OC)n1", "Measured result": 1.05}
{"Compound": "COc1ccc(OC)c(C(O)C(C)N)c1 (configuration not stated)", "Measured result": 1.13}
{"Compound": "CN1CCC(=C2c3ccccc3Sc3ccccc32)CC1", "Measured result": 0.879}
{"Compound": "CN1CCC(=C2c3ccccc3CC(=O)c3sccc32)CC1", "Measured result": 1.05}
